The following binders are listed with their measured pKi values.
- TEST TARGET: mu opioid receptor (human, UniProt P35372)
- Sequence (P35372 whole entry): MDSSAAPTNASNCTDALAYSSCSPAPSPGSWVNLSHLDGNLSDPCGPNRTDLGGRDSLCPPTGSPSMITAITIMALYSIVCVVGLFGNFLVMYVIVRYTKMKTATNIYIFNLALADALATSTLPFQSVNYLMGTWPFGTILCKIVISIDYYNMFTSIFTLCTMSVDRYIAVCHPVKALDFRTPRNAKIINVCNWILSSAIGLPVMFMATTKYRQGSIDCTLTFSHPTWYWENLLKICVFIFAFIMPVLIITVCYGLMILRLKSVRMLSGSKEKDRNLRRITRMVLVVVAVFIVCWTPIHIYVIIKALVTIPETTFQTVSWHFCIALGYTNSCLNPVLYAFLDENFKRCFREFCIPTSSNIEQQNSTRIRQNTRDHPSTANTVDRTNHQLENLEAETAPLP
- METHOD NOTES: competition, [3H]diprenorphine, 25C, pH 7.8
pKi: −log10 of the molar value. Numbered stars: 1 amine (or outer) side, 2 acyl side, 3 side chain; on linkers, the order of the positions; unused ones are H or OH. Square brackets hold non-standard residues; d marks the D form. * marks the point of attachment. X1 = N‑((R)-1-(2-naphthyl)ethyl)amide, C[C@@H](N*)c1ccc2ccccc2c1; 3,5‑dimethyl‑Tyr = Cc1cc(C[C@H](N[*:1])C(=O)[*:2])cc(C)c1O[*:3]; 6‑guanidinohexyl = N=C(N)NCCCCCC*
READOUT NAME: pKi

{6‑guanidinopentyl}-Tyr-Tyr-Arg-X1 [Example 23 (N-α-6-guanidinopentyl-Tyr-Tyr-N-[(R)-1-(2-naphthyl)ethyl]-argininamide)] :: 7.23
{6‑guanidinohexyl}-[3,5‑dimethyl‑Tyr]-Tyr-Arg-X1 (SMILES Cc1cc(C[C@H](NCCCCCCNC(=N)N)C(=O)N[C@@H](Cc2ccc(O)cc2)C(=O)N[C@@H](CCCNC(=N)N)C(=O)N[C@H](C)c2ccc3ccccc3c2)cc(C)c1O) [Example 25 (N-α-6-guanidinohexyl-3,5-dimethyl-Tyr-Tyr-N-[(R)-1-(2-naphthyl)ethyl]-argininamide)] :: 7.85
{6‑guanidinohexyl}-[3,5‑dimethyl‑Tyr]-[3,5‑dimethyl‑Tyr]-Arg-X1 (SMILES Cc1cc(C[C@H](NCCCCCCNC(=N)N)C(=O)N[C@@H](Cc2cc(C)c(O)c(C)c2)C(=O)N[C@@H](CCCNC(=N)N)C(=O)N[C@H](C)c2ccc3ccccc3c2)cc(C)c1O) :: 8.00
{6‑guanidinohexyl}-YYRW-NH2 (SMILES N=C(N)NCCCCCCN[C@@H](Cc1ccc(O)cc1)C(=O)N[C@@H](Cc1ccc(O)cc1)C(=O)N[C@@H](CCCNC(=N)N)C(=O)N[C@@H](Cc1c[nH]c2ccccc12)C(N)=O) [Example 1 (N-α-6-guanidinohexyl-Tyr-Tyr-Arg-Trp-NH2)] :: 7.40
